Tested on: Acinetobacter baumannii ATCC17961
assay info: Antimicrobial susceptibility testing: 90% growth inhibitory concentration (IC90) determination
Assay type: cell-based
test settings: Acinetobacter baumannii ATCC17961; Iso-Sensitest broth; growth by OD 600 nm over 16 h; 35±2° C.; read-out: ATCC 17961 IC90
Counter-ions that a name gives are not always drawn.

{"molecule": "Cc1cc(NC(=O)c2ncc(-c3ccc(OCC#N)c(F)c3F)n2C)ccc1C(=O)N1CCN(C(=O)N[C@H]2C[N+](C)(C)C[C@@H]2O)CC1 [Example B29, formate]", "unit text": "nM", "IC90": 250}
{"molecule": "COc1ccc(-c2cnc(C(=O)Nc3ccc(C(=O)N4CCN(C(=O)[C@@H]5C[C@@](C)(O)C[N+]5(C)C)CC4)c(Cl)c3)n2C)c(F)c1F [Example B30, formate]", "unit text": "nM", "IC90": 110}
{"molecule": "Cn1c(-c2ccc(OCC#N)c(F)c2F)cnc1C(=O)Nc1ccc(C(=O)NCCNC(=O)C[N+](C)(C)C)c(Cl)c1 [Example A14]", "unit text": "nM", "IC90": 600}

---

Test system: Acinetobacter baumannii ATCC17961
assay info: Antimicrobial susceptibility testing: 90% growth inhibitory concentration (IC90) determination
Format: cell-based
test settings: Acinetobacter baumannii ATCC17961; Iso-Sensitest broth; growth by OD 600 nm over 16 h; 35±2° C.; read-out: ATCC 17961 IC90
Experimental: The in vitro antimicrobial activity of the compounds was determined according to the following procedure: The assay used a 10-points Iso-Sensitest broth medium to measure quantitatively the in vitro activity of the compounds against Acinetobacter baumannii ATCC17961. […] Bacterial cell growth was determined with the measurement of optical density at λ=600 nm each 20 minutes over a time course of 16 h. […]
Where a name gives a salt, the structure may show the parent alone.
Classify: rule met when IC90 is strictly less than 0.2 µM; rule not met when IC90 is not.

{"compound": "COc1ccc(-c2cnc(C(=O)Nc3ccc(C(=O)N4CCN(C(=O)C5CC[N+](C)(C)CC5)CC4)c(Cl)c3)n2C)c(F)c1F [Example B10, formate]", "group": "rule met"}
{"compound": "Cn1c(-c2ccc(OC(F)F)c(F)c2F)cnc1C(=O)Nc1ccc(C(=O)N2CCN(C(=O)C[N+]3(C)CCCC3)CC2)c(Cl)c1 [Example C25]", "group": "rule met"}
{"compound": "Cn1c(-c2ccc(OCC#N)c(F)c2F)cnc1C(=O)Nc1ccc(C(=O)N2CCC(C(=O)N3CC([N+](C)(C)C)C3)CC2)c(Cl)c1 [Example B31, formate]", "group": "rule not met"}
{"compound": "COCCCn1cc(CNC(=O)c2ccc(NC(=O)c3ncc(-c4ccc(OC)c(F)c4F)n3C)cc2Cl)c[n+]1C [Example A25]", "group": "rule not met"}
{"compound": "COc1ccc(-c2cnc(C(=O)Nc3ccc(C(=O)NCCCCC[N+](C)(C)CC(N)=O)c(Cl)c3)n2C)c(F)c1F [Example A3, formate]", "group": "rule met"}
{"compound": "Cn1c(-c2ccc(OC(F)F)c(F)c2Cl)cnc1C(=O)Nc1ccc(C(=O)N2CCN(C(=O)C3CC[N+](C)(CC4CNC4)CC3)CC2)c(Cl)c1 (stereo not drawn) [Example C15]", "group": "rule met"}
{"compound": "Cn1c(-c2ccc(OCC#N)c(F)c2F)cnc1C(=O)Nc1ccc(C(=O)N[C@H]2C[C@@H](NCC[N+](C)(C)C)C2)c(Cl)c1 [Example A17, formate]", "group": "rule not met"}
{"compound": "Cn1c(-c2ccc(OC(F)F)c(F)c2Cl)cnc1C(=O)Nc1ccc(C(=O)N2CCN(C(=O)C3CC[N+](C)(CC(N)=O)CC3)CC2)c(Cl)c1 (stereo not drawn) [Example C1]", "group": "rule met"}
{"compound": "COc1ccc(-c2cnc(C(=O)Nc3ccc(C(=O)N4CCN(C(=O)CC[N+](C)(C)C)CC4)c(C)c3)n2C)c(F)c1F [Example B8]", "group": "rule met"}
{"compound": "Cc1cc(NC(=O)c2ncc(-c3ccc(OCC#N)c(F)c3F)n2C)ccc1C(=O)N[C@H]1C[C@@H](NCC[N+](C)(C)C)C1 [Example A19, formate]", "group": "rule not met"}
{"compound": "Cn1c(-c2ccc(OCF)c(F)c2F)cnc1C(=O)Nc1ccc(C(=O)N2CCN(C(=O)C[N+](C)(C)C)CC2)c(Cl)c1 [Example B56, formate]", "group": "rule met"}
{"compound": "COc1ccc(-c2cnc(C(=O)Nc3ccc(C(=O)NCc4c[n+](C)c(NC(=O)C[N+](C)(C)C)s4)c(Cl)c3)n2C)c(F)c1F [Example C23]", "group": "rule met"}
